Measured IC50 values are reported for all entries that follow.
target desc: T1, recombinant hIL1RAP Domain1+2+3 (aa21-367) (human, UniProt Q9NPH3 21-367)
T1 construct: Numbering on Uniprot Q9NPH3
T1 sequence (looked up): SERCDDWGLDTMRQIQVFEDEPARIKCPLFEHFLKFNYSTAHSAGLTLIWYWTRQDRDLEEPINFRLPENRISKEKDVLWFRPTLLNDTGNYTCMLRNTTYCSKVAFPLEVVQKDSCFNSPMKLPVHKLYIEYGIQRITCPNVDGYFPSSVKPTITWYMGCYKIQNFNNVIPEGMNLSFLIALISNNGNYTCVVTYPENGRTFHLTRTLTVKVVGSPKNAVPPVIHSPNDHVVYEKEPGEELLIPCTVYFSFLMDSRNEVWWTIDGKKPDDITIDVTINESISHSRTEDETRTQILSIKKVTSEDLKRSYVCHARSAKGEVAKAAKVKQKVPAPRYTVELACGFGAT
protocol description: binding ELISA, coated recombinant hIL1RAP aa21-367
The reply should contain only the number, in µg/mL.

h48D2 VH2:VL4 (antibody, human IgG1, kappa, L234A L235A, V domains shown, Humanized; also called VL4:VH2) VH: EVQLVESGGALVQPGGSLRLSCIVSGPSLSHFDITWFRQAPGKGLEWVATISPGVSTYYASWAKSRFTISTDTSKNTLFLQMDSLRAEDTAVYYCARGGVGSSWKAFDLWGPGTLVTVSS VL: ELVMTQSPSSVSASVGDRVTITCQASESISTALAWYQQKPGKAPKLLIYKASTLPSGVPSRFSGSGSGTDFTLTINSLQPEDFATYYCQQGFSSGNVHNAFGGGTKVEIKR; 0.0262

Memo: h48D2 VH5:VL4 (antibody, human IgG1, kappa, L234A L235A, V domains shown, Humanized; also called VL4:VH5; humanized 48D2 variant VH5:VL4) VH: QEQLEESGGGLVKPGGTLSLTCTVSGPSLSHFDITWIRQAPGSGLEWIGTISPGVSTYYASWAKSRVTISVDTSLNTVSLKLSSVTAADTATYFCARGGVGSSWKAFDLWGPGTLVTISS VL: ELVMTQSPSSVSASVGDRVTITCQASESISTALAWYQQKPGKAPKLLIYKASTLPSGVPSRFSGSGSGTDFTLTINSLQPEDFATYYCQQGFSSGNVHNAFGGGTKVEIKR , reported IC50: 0.0258

Memo: h48D2 VH3:VL5 (antibody, human IgG1, kappa, L234A L235A, V domains shown, Humanized; also called VL5:VH3) VH: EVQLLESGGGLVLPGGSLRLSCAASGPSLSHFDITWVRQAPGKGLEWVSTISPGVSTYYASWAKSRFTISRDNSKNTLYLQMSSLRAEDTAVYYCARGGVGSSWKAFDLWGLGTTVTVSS VL: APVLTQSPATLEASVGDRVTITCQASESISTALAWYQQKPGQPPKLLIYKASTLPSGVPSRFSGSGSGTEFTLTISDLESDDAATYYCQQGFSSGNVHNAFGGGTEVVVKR , reported IC50: 0.0232

Cited source for all entries: patent US20220242950A1
